Molecular target: HDAC8 (Homo sapiens)
Sequence (Q9BY41 1-377): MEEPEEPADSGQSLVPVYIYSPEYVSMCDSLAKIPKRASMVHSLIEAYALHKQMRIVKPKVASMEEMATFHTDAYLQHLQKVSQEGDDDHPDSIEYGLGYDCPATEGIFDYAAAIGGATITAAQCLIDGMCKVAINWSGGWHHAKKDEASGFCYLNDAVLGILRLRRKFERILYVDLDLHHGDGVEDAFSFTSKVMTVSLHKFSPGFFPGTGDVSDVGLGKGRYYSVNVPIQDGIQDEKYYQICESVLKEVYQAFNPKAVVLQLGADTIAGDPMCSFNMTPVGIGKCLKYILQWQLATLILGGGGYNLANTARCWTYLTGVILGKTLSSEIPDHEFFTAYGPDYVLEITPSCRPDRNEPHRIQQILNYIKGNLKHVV
pIC50: −log10 of the molar value.
Quantity kind: pIC50

Compound	Target entity	pIC50
C/C=C1\NC(=O)c2cc(F)cc(n2)CNC(=O)C[C@@H](/C=C/CCSC(=O)CCCCCCC)OC(=O)[C@H](Cc2ccccc2)NC1=O [Compound 70]	HDAC8 (Homo sapiens)	7.47
C/C=C1\NC(=O)c2cccc(n2)CCNC(=O)C[C@@H](/C=C/CCSC(C)=O)OC(=O)[C@H](C(C)C)NC1=O [Example 26]	HDAC8 (Homo sapiens)	7.19
C/C=C1\NC(=O)c2cc(F)cc(n2)CNC(=O)C[C@@H](/C=C/CCSC(C)=O)OC(=O)[C@H](Cc2cccc3ccccc23)NC1=O [Example 79]	HDAC8 (Homo sapiens)	7.38
C/C=C1\NC(=O)c2cc(SC)cc(n2)CNC(=O)C[C@@H](/C=C/CCSC(C)=O)OC(=O)[C@H](CCCCN)NC1=O [Compound 193]	HDAC8 (Homo sapiens)	7.31

a = CC(=O)SCC/C=C/[C@@H]1CC(=O)NCc2cccc(n2)C(=O)NC(=C(C)C)C(=O)N[C@@H](C(C)C)C(=O)O1 [Compound 20]
b = C/C=C1\NC(=O)c2nc(ccc2SC)CNC(=O)C[C@@H](/C=C/CCSC(=O)CCCCCCC)OC(=O)[C@H](CC)NC1=O [Compound 171]
Between the entries labeled a and b , whose measured pIC50 is lower? Response format: the label of the selected entry. a
(a: 7.19, b: 7.46)

* * *

System: KBM-5 (human chronic myelogenous leukemia)
Assay: MTT cancer cell growth inhibition
Type: cell-based
Conditions: Homo sapiens, KBM5, 72 h, MTT, 72 hours incubation, KBM-5 cells; read-out: GI50 KBM-5
Quantity kind: GI50 (nM)

See these solved cases before continuing.
Molecule	GI50, nM
C/C=C1\NC(=O)c2ccc(SC)c(n2)CNC(=O)C[C@@H](/C=C/CCS)OC(=O)[C@H](CC)NC1=O [Compound 231]	38
C=C1NC(=O)c2ccc(SC)c(n2)CNC(=O)C[C@@H](/C=C/CCSC(C)=O)OC(=O)[C@H](C)NC1=O [Compound 212]	69

I = C/C=C1\NC(=O)c2cccc(n2)CNC(=O)C[C@@H](/C=C/CCSC(C)=O)OC(=O)[C@H](Cc2cccc3ccccc23)NC1=O [Compound 17]
II = C/C=C1\NC(=O)c2cccc(n2)CNC(=O)C[C@@H](/C=C/CCS)OC(=O)[C@H](C)NC1=O [Example 29]
Lab note: check whether I or II shows the higher recorded GI50. Bench note: the answer is the label of the chosen record. I

* * *

Tested on: HT1080 (human fibrosarcoma cells)
Experiment: MTT cancer cell growth inhibition
Type: cell-based
Settings: Homo sapiens, HT-1080, 72 h, MTT, 72 hours incubation; read-out: GI50 HT1
Quantity kind: GI50 (nM)

Worked set:
Compound	GI50 [nM]
C=C1NC(=O)c2nc(ccc2F)CNC(=O)C[C@@H](/C=C/CCS)OC(=O)[C@H](C)NC1=O [Compound 140]	50
C/C=C1\NC(=O)c2cccc(n2)CNC(=O)C[C@@H](/C=C/CCSC(=O)CCCCCC)OC(=O)[C@H](C(C)C)NC1=O [Compound 2]	50
C/C=C1\NC(=O)c2ccc(F)c(n2)CNC(=O)C[C@@H](/C=C/CCSC(C)=O)OC(=O)[C@@H](C)NC1=O [Compound 102]	50
C/C=C1\NC(=O)c2cc(F)cc(n2)CNC(=O)C[C@@H](/C=C/CCSC(=O)CCCCC)OC(=O)[C@H](C(C)C)NC1=O [Example 37]	30
C/C=C1\NC(=O)c2nc(ccc2C)CNC(=O)C[C@@H](/C=C/CCSC(C)=O)OC(=O)[C@H](Cc2ccccc2)NC1=O [Compound 66]	30

P = C/C=C1\NC(=O)c2nc(ccc2F)CNC(=O)C[C@@H](/C=C/CCSC(C)=O)OC(=O)[C@H](C(C)C)NC1=O [Example 48]
Q = C/C=C1\NC(=O)c2nc(ccc2F)CNC(=O)C[C@@H](/C=C/CCSC(=O)CCCCCCC)OC(=O)[C@H](Cc2ccccc2)NC1=O [Example 69]
I'm curious whether P or Q has the smaller GI50 number. Which is it? Selection: enter the item's label. P
(P: 40 nM, Q: 70 nM)

* * *

Test system: Bel-7402 (human hepatoma cells)
Test: MTT cancer cell growth inhibition
Type: cell-based
Conditions: Homo sapiens, Bel-7402, 72 h, MTT, 72 hours incubation, Bel-7402 cells; read-out: GI50 Bel-7402
Quantity kind: GI50 (nM)

Compound	Quantity kind	Reported measurement
C/C=C1\NC(=O)c2nc(ccc2SC)CNC(=O)C[C@@H](/C=C/CCSC(C)=O)OC(=O)[C@H](Cc2ccc(O)cc2)NC1=O [Compound 201]	GI50	69
C=C1NC(=O)c2cccc(n2)CNC(=O)C[C@@H](/C=C/CCSC(C)=O)OC(=O)[C@H](C(C)C)NC1=O [Compound 19]	GI50	97
CSc1cc2nc(c1)C(=O)NC(=C(C)C)C(=O)N[C@@H](C(C)C)C(=O)O[C@H](/C=C/CCSC(C)=O)CC(=O)NC2 [Compound 208]	GI50	17
C/C=C1\NC(=O)c2nc(ccc2F)CNC(=O)C[C@@H](/C=C/CCSC(=O)CCC)OC(=O)[C@H](C(C)C)NC1=O [Example 42]	GI50	55
C/C=C1\NC(=O)c2cc(SC)cc(n2)CNC(=O)C[C@@H](/C=C/CCS)OC(=O)[C@H](C)NC1=O [Compound 233]	GI50	81
C=C1NC(=O)c2cc(F)cc(n2)CNC(=O)C[C@@H](/C=C/CCS)OC(=O)[C@H](C)NC1=O [Compound 141]	GI50	58

I = C/C=C1\NC(=O)c2cccc(n2)CCNC(=O)C[C@@H](/C=C/CCSC(C)=O)OC(=O)[C@H](C(C)C)NC1=O [Example 26]
II = C/C=C1\NC(=O)c2nc(ccc2SC)CNC(=O)C[C@@H](/C=C/CCSC(=O)CCC)OC(=O)[C@H](C(C)C)NC1=O [Compound 159]
III = C/C=C1\NC(=O)c2ccc(SC)c(n2)CNC(=O)C[C@@H](/C=C/CCSC(=O)CCCCCCC)OC(=O)[C@H](C)NC1=O [Compound 182]
IV = C/C=C1\NC(=O)c2nc(ccc2F)CNC(=O)C[C@@H](/C=C/CCSC(=O)CCCCCCC)OC(=O)[C@H](CC)NC1=O [Example 54]
With regard to GI50, arrange the entries in ascending order, please. To answer, write out the labels according to the requested order. II, III, IV, I

a = C/C=C1\NC(=O)c2cc(F)cc(n2)CNC(=O)C[C@@H](/C=C/CCSC(=O)CCCCCC)OC(=O)[C@H](C(C)C)NC1=O [Example 34]
b = C=C1NC(=O)c2cc(F)cc(n2)CNC(=O)C[C@@H](/C=C/CCSC(C)=O)OC(=O)[C@H](C(C)C)NC1=O [Compound 85]
Between these two entries, a and b , state which has the higher GI50. Kindly give the label for the entry you pick. a

* * *

Test system: K562 (human leukemia cells)
Assay: MTT cancer cell growth inhibition
Format: cell-based
Conditions: Homo sapiens, K562, 72 h, MTT, 72 hours incubation, K562 cells; read-out: GI50 K562
Quantity kind: GI50 (nM)

I = C/C=C1\NC(=O)c2cc(SC)cc(n2)CNC(=O)C[C@@H](/C=C/CCSC(=O)CCCCCCC)OC(=O)[C@H](C(C)C)NC1=O [Compound 148]
II = C/C=C1\NC(=O)c2cc(SC)cc(n2)CNC(=O)C[C@@H](/C=C/CCS)OC(=O)[C@H](C)NC1=O [Compound 233]
III = C/C=C1\NC(=O)c2ccc(SC)c(n2)CNC(=O)C[C@@H](/C=C/CCSC(C)=O)OC(=O)[C@H](Cc2cccc3ccccc23)NC1=O [Compound 200]
# desc sort on GI50 across 3 compounds # answer = labels listed in requested order III, I, II

* * *

Molecular target: HDAC11 (Homo sapiens, UniProt Q96DB2)
Sequence (Q96DB2 whole entry, species assumed): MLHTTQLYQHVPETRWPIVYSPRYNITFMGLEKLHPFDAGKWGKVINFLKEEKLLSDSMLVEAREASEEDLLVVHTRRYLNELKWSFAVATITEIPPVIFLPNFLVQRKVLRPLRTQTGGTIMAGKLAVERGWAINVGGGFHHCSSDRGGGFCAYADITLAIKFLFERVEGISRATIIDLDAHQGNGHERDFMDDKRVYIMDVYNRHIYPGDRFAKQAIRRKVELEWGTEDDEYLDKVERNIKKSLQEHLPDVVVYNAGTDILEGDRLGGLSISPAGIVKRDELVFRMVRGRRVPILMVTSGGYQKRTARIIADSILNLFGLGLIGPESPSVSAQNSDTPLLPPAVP
Experiment: HDAC biochemical activity measurement (fluorescent substrate deacetylation)
Settings: read-out: IC50 HDAC11; HDAC11; 37° C. 30 minutes
pIC50: −log10 of the molar value.
Quantity kind: pIC50

Solved entries (count: 5):
Compound	Quantity kind	Reported measurement
C/C=C1\NC(=O)c2cccc(n2)CNC(=O)C[C@@H](/C=C/CCSC(=O)CCCCCCC)OC(=O)[C@H](C)NC1=O [Compound 11]	pIC50	7.09
C/C=C1\NC(=O)c2nc(ccc2C)CNC(=O)C[C@@H](/C=C/CCSC(C)=O)OC(=O)[C@H](Cc2ccccc2)NC1=O [Compound 66]	pIC50	7.03
C/C=C1\NC(=O)c2cccc(n2)CNC(=O)C[C@@H](/C=C/CCSC(C)=O)OC(=O)[C@H](CCCCN)NC1=O [Compound 15]	pIC50	6.97
C/C=C1\NC(=O)c2cc(F)cc(n2)CNC(=O)C[C@@H](/C=C/CCSC(C)=O)OC(=O)[C@H](C(C)C)NC1=O [Compound 49]	pIC50	7.14
C/C=C1\NC(=O)c2cc(F)cc(n2)CNC(=O)C[C@@H](/C=C/CCSC(=O)CCCCCCC)OC(=O)[C@H](C)NC1=O [Compound 61]	pIC50	7.08

I = C/C=C1\NC(=O)c2cc(F)cc(n2)CNC(=O)C[C@@H](/C=C/CCSC=O)OC(=O)[C@H](C(C)C)NC1=O [Compound 52]
II = C/C=C1\NC(=O)c2cccc(n2)CNC(=O)C[C@@H](/C=C/CCSC(=O)CCCCCCC)OC(=O)CNC1=O [Compound 235]
Which gives the smaller pIC50 number: I or II ? Return value: the label identifying the chosen record. I
(I: 6.97, II: 7.72)
